# target_entity: Amyloid beta 40 (Aβ40) aggregates (Homo sapiens)
# Construct: gene APP; synthetic amyloid-β peptide (1-40), aggregated
# Sequence (P05067 672-711 limits assumed): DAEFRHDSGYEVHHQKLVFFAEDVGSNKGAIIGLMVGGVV
# protocol_notes: fluorescence titration of Aβ[…] aggregates, one-site binding fit
pKd: −log10 of the molar value.
endpoint_label: pKd

1. CN(C)c1ccc(/C=C/C(=O)/C=C(O)/C=C/c2ccc(N(C)C)cc2)cc1 ... 7.98
